testDetails: yeast display, Sf9 membrane polyspecificity reagent, FACS + sequencing; frameworks hold sequencing errors
readoutKind: polyreactivity (PSR sort gate)

Here's what some known entries look like.
QVQLVESVGGLVQAGGSLRLSCAASGRTFSEYAMGWYRQAPGEERELVAAITSTGGITYYADSVKGRFTISRDNAKNTVYLQMNSLKPEDTAVYYCAARAYTWGPAGQVDKYYYWGQGTQVTVSS | high polyreactivity
QVQLVESGGGLVQAGGSLRLSCAASGRIYCKYAMGRYRQAPGKERELVAGISRGAGRTYYADSVKGRFTISRDNAKNTVYLQMNSLKPADTAVSYCAAVPSYHSTSPFYYWGQGTQVTVSS | high polyreactivity
QVQLGESGGGLVQAGGSLRLSCAASGRIFAWNAMGWYRQAPGKERELVAAITYNGGSTYYADSVKGRFTISRDNAKNTVYLQMNSLKPEDTAVYYCNKVTRSPAQGYGYWGQGTQVTVSS | high polyreactivity
QVQLVESGGGLVQSGGSLRLSCAASGFTFSWYAMGSYRQAPGKERELVAAISWDGDSTYYADSVKGRCTISRDNAKNTVFLQMNSLKPEETAVYYCAADFSYYWDGYDYWGQGSQVTVSS | high polyreactivity
QVQLVESGGGLVQAGGSLRLSCAASGSIFVEYVMGWYRQAPGKERELVADISWRDGDTYYADSVKGRFTISRDNAKNTVYLQMNSLKPEDTAVYFCAADVIVPESYGYWPLSYYYWGQGTQVTVSS | low polyreactivity
QVQLEESGGGLVQAGGSLRLSCAASGSIFEYYAMGWYRPAPGKERELVAAISSGGPTYYADSVKGRFTISRDNAKNTVYLQMNSLKPEDTAVYYCNADLWYPDYAYWGQGTQLTVSS | low polyreactivity
QVQLVESGGGLVQAGGSLRLSCAASGRTFYVNAMGWYRQAPGKERELVARISSSGITYYADSVKGRFTISRDNAKNTVYLQMNSLKPEDTAVYYCAAEYRSYSTLNRKFWYSPEYDYWGQGTQVTVSS | low polyreactivity
QVQLVESGGGLVQAGGSLRLSCAASGRTFTGYAMGWYRQAPGKEREFVAAITQRGGSTYYADSVKGRFTISRDNAKNTVYLQMNSLKPEDTAVYYCAASYLTWKRRYDYWGQGTQVTVSS | high polyreactivity
QVQLVESGGGLVQAGGSLRLSCAASGSIFYKYALGWYRQAPGKERELVASITWSDGNTNYADSVKGRFTISRDNAKNTVYLQMNSLKPEDTAVYYCADGGWYPTSRIFDYWGQGTQVTVSS | low polyreactivity
QVQLVESGGGLVQAGGSLLLSCAASGSIFGGNAMGWSRQAPGKVRELVAAITSSGGSTYYADSVKGRFTISRDNAKNTVYLQMNSLKPEDTAVYYCNKLSWRKYLGYEYWGQGTQVTVSS | high polyreactivity

// switching to the query sequence
stdin: Look at this sequence and give its reported polyreactivity (PSR sort gate). `QVQLVESGGGLVQAGGSLRLSCAASGRIFSYYDIGWYRQAPGKERELVAAITGGGRTIYADSVKGRFTISRDNAKNTVYLQMNILKTEDTAVYYCNARARSRKFYYWGQGTQVTVSS`
stdout: high polyreactivity

====

testDetails: yeast display, Sf9 membrane polyspecificity reagent, FACS + sequencing; frameworks hold sequencing errors
readoutKind: polyreactivity (PSR sort gate)

Here's what some known entries look like.
QVQLVESGGGLVQAGGILRLSCAASGFTFISNAMGWYRQAPGKERELVAAISSSGGRTYYADSVKGRFTISRDNAKNTVYLQMNRLKPEDTAVYYCNADRSLLYSRKIEYDYWGQGTQVTVSS | low polyreactivity
QVQLVESGGGLVQAGGSLRLSCAASGFIFVAYALGWYRPAPGKERELVAAITSSGVTTYYADSVKGRFTISRDNAKNTVYLQMTSLKQDDTAVYFCAAYRRRSPFDYWGQGTQVTVSS | high polyreactivity
QVQLVESGGGIDQAGGSLRLSCAASAFTLINYAMAWYRQAPGKERELVAAISQSGGSTYYADSVKGRFTISSDNAKNTVYLQMNSLKPEDTAVYYCNARRRGWGWTIGYVWRDDYWGQGTQVTVSS | high polyreactivity
QVQLVESAVCLVQAGVSLRLSCAASGIIFDYNAMGWYRQAPGKDREVVAAITSTDNTNYADSVKGRFTISRDNAKNTVYLQMNSLKPEDTAVYYCNTDYWLSVVYAMDYWGQGTQVTVSS | low polyreactivity

// switching to the query sequence
stdin: Look at this sequence and give its reported polyreactivity (PSR sort gate). `QVQLVESGGGLVQAGGSLRLSCAASGFIFRDYDMGWYRQAPGKERELVPAISWRGGTYYADSVKGRFTISRDNAKNTVYLQMNSLKPEDTAVYYCNATRYRLRPSGVRYKYNYWGQGTQVTVSS`
stdout: low polyreactivity
